tested on: AA1029; test: qHTS profiling for inhibitors of Plasmodium falciparum proliferation (AID 504749); further: nearly all actives have a fitted effect of over 60% in size; conditions: P. falciparum in erythrocytes, SYBR Green DNA, 72 h; series mostly up to 28.7 µM
Results filed as inconclusive are left out. The source made the active and inactive calls. The call rests on the fitted dose curve; in most records, active means well fitted inhibition curve with a large enough effect; inconclusive means small, poorly fitted or top-dose-only effect; inactive means flat fitted curve, though single readings scatter.
Can you answer with just one of these options? active, inactive

[[record]]
molecule = "C[C@@H]1CC[C@H]2[C@@H](C)C(=O)O[C@@H]3OC4(C)CC[C@@H]1C32OO4 (stereo not given in full)"
assigned_class = "active"

[[record]]
molecule = "C=C1Nc2ccccc2C(=O)N1c1ccccc1C"
assigned_class = "inactive"

[[record]]
molecule = "CC(=O)Oc1ccc2c3c1OC1[C@@H](OC(C)=O)C=C[C@H]4[C@H](C2)N(C)CC[C@]314 (stereo not given in full)"
assigned_class = "inactive"

[[record]]
molecule = "O=C1CC2OCC=C3CN4CC[C@]56c7ccccc7N1C5C2[C@H]3C[C@H]46 (stereo not given in full)"
assigned_class = "active"

[[record]]
molecule = "C#C[C@]1(O)CC[C@H]2[C@@H]3CCC4=CC(=O)CCC4(C)[C@H]3CCC21C (stereo not given in full)"
assigned_class = "inactive"


Problem: GET /call?item= CN(C)[C@H]1C(=O)C(C(N)=O)=C(O)[C@]2(O)C(=O)C3=C(O)c4c(O)cccc4[C@@](C)(O)[C@H]3C[C@@H]12 returns the recorded outcome of this test.
Solution: inactive

Problem: GET /call?item= CC(=O)O[C@H]1C[C@H](O[C@H]2[C@@H](O)CC(O[C@H]3[C@@H](O)C[C@H](O[C@H]4CC[C@@]5(C)[C@H](CC[C@@H]6[C@@H]5CC[C@]5(C)[C@@H](C7=CC(=O)OC7)CC[C@]65O)C4)O[C@@H]3C)O[C@@H]2C)O[C@H](C)[C@H]1O[C@@H]1O[C@H](CO)[C@@H](O)[C@H](O)[C@H]1O (stereo not given in full) returns the recorded outcome of this test.
Solution: inactive

Problem: GET /call?item= CC12CCC3C4CCC(=O)C(O)=C4CCC3C1CCC2OC(=O)CCC1CCCC1 (stereo not given) returns the recorded outcome of this test.
Solution: inactive

Problem: GET /call?item= COC(=O)C1C(OC(=O)c2ccccc2)CC2CCC1N2C (stereo not given) returns the recorded outcome of this test.
Solution: inactive

###

system: CP192; experiment: qHTS profiling for inhibitors of Plasmodium falciparum proliferation (AID 504749); further: nearly all actives have a fitted effect of over 60% in size; conditions: P. falciparum in erythrocytes, SYBR Green DNA, 72 h; series mostly up to 28.7 µM
Records with an inconclusive call do not appear. Active and inactive are the calls of the source. The call rests on the fitted dose curve; in most records, active means well fitted inhibition curve with a large enough effect; inconclusive means small, poorly fitted or top-dose-only effect; inactive means flat fitted curve, though single readings scatter.
Can you answer with just one of these options? active, inactive

Solved cases (3 shown):
[[record]]
molecule = "[S]=[Sb][S][Sb]=[S]"
assigned_class = "inactive"

[[record]]
molecule = "C=C1CC2C(CC[C@]3(C)C(=O)CCC23)[C@]2(C)C=CC(=O)C=C12 (some centres not stated)"
assigned_class = "inactive"

[[record]]
molecule = "CC1OC(O[C@H]2C[C@@H](O)[C@]3(CO)[C@@H]4C(CC[C@]3(O)C2)[C@@]2(O)CC[C@H](C3=CC(=O)OC3)[C@@]2(C)C[C@H]4O)C(O)C(O)C1O (some centres not stated)"
assigned_class = "inactive"


Problem: GET /call?item= CC(=O)[C@H]1CC[C@H]2C3CC[C@H]4C[C@H](O)CC[C@]4(C)C3CC[C@]12C (some centres not stated) returns the recorded outcome of this test.
Solution: inactive

Problem: GET /call?item= COc1ccc2c3c1O[C@H]1[C@@H](O)C=C[C@H]4C(C2)NCCC341 (some centres not stated) returns the recorded outcome of this test.
Solution: inactive

Problem: GET /call?item= O=C1CC2OCC=C3CN4CCC56c7ccccc7N1C5[C@H]2[C@H]3C[C@H]46 (some centres not stated) (tested in a mixture with another compound) returns the recorded outcome of this test.
Solution: inactive

###

test: qHTS assay for small molecule activators of the human pregnane X receptor (PXR) signaling pathway (AID 720659); details: DPX-2 HepG2 CYP3A4-luciferase, 24 h; series mostly up to 92.3 µM
Active and inactive are the calls of the source. How the calls were made is not given here.
Measurement Kind: outcome

For orientation, consider the following solved cases.
[[record]]
compound = "C(=NC1CCCCC1)=NC1CCCCC1"
result = "inactive"

[[record]]
compound = "O=[N+]([O-])C(Br)Br"
result = "inactive"

[[record]]
compound = "O=C1C(Cl)=C(Cl)C(=O)c2ccccc21"
result = "inactive"

[[record]]
compound = "CCSCCSP(=O)(OC)OC"
result = "inactive"

[[record]]
compound = "CN(C)P(=O)(N(C)C)N(C)C"
result = "inactive"

[[record]]
compound = "CCNc1nc(NC(C)C)nc(OC)n1"
result = "inactive"

[[record]]
compound = "CC(C)(C)OOC(C)(C)CCC(C)(C)OOC(C)(C)C"
result = "inactive"

[[record]]
compound = "CN/C(=N\\[N+](=O)[O-])NCc1cnc(Cl)s1"
result = "inactive"

[[record]]
compound = "CCOP(=O)(NC(C)C)Oc1ccc(S(C)=O)c(C)c1 (stereo not drawn)"
result = "inactive"

[[record]]
compound = "CCOP(=O)(OCC)SCSC(C)(C)C"
result = "inactive"


Problem: Quickly give me recorded outcome for COc1cc(OC)nc(NC(=O)NS(=O)(=O)c2ncccc2C(F)(F)F)n1
Solution: inactive

Problem: Quickly give me recorded outcome for O=C(O)C1(O)c2ccccc2-c2ccc(Cl)cc21 (stereo not drawn)
Solution: inactive

Problem: Quickly give me recorded outcome for O=[N+]([O-])Nc1nccn1Cc1ccc(Cl)nc1
Solution: inactive

###

target: Alpha-galactosidase (Coffea arabica) (UniProt Q42656); test: Counterscreen for Glucocerebrosidase Inhibitors: qHTS Assay for Coffee Bean alpha-Galactosidase at pH 5.9 (AID 998); conditions: coffee bean alpha-galactosidase enzyme assay; series mostly up to 76.9 µM
Sequence (Q42656 whole entry, looked up): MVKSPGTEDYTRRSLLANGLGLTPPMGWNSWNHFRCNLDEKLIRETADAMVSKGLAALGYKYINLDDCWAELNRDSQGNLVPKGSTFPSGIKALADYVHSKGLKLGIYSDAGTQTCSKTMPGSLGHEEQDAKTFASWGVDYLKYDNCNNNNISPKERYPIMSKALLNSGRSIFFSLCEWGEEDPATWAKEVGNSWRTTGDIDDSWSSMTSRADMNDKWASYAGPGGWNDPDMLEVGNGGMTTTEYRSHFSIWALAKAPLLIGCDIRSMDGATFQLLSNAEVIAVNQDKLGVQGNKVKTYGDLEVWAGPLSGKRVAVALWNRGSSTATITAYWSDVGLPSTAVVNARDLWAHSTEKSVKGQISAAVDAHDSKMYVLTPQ
The source made the active and inactive calls. Calls follow the shape of the dose curve; as a rule, active = well fitted curve in the direction sought with a large enough effect; inactive = no such curve, though single readings can be large or run the other way.
Measurement Kind: outcome

For orientation, consider the following solved cases.
[[record]]
smiles_entry = "Oc1ccc([C@@H]2CNCc3sccc32)cc1O"
result = "inactive"

[[record]]
smiles_entry = "OC[C@@H]1O[C@@H](n2cnc3cncnc32)[C@@H](O)[C@H]1O"
result = "inactive"

[[record]]
smiles_entry = "Cc1ccccc1N1CCN(S(=O)(=O)C[C@@]23CC[C@H](C[C@H]2NC(=O)[C@@H](N)CCS(C)(=O)=O)C3(C)C)CC1"
result = "inactive"

[[record]]
smiles_entry = "Nc1ncnc2c1ncn2[C@@H]1O[C@@H](C(=O)NC2CC2)[C@H](O)[C@@H]1O"
result = "inactive"

[[record]]
smiles_entry = "CN[C@@H](CC(C)C)C(=O)N[C@@H]1C(=O)N[C@H](CC(N)=O)C(=O)N[C@H]2C(=O)N[C@H]3C(=O)N[C@H](C(=O)N[C@H](C(=O)O)c4cc(O)cc(O)c4-c4cc3ccc4O)[C@H](O)c3ccc(c(Cl)c3)Oc3cc2cc(c3O[C@@H]2O[C@@H](CO)[C@@H](O)[C@@H](O)[C@H]2O[C@H]2C[C@](C)(N)[C@H](O)[C@H](C)O2)Oc2ccc(cc2Cl)[C@@H]1O"
result = "inactive"


Problem: Quickly give me recorded outcome for CCN(CC)CC#CCOC(=O)[C@@](O)(c1ccccc1)C1CCCCC1
Solution: inactive

###

test: Cell Viability - LYMP1-002 - Assay at 24 hr (AID 993); conditions: LYMP1-002 lymphoblastoid cells viability; series mostly up to 92.2 µM
Active and inactive are the calls of the source. Calls follow the shape of the dose curve; as a rule, active = well fitted cell-killing curve with a large enough effect; inconclusive = small, poorly fitted or top-dose-only effect; inactive = flat fitted curve, though single readings scatter.
Can you answer with just one of these options? True = active, False = inactive

Solved cases (3 shown):
[[record]]
compound = "CC(C)CC(C)Nc1ccc(Nc2ccccc2)cc1 (configuration not stated)"
assigned_class = "True"

[[record]]
compound = "[CH3][Hg][Cl]"
assigned_class = "True"

[[record]]
compound = "C[C@@H]1CC[C@@]2(OC1)O[C@H]1[C@@H](O)[C@H]3[C@@H]4CC[C@H]5C[C@@H](O[C@@H]6O[C@H](CO)[C@H](O[C@@H]7O[C@H](CO)[C@@H](O)[C@H](O[C@@H]8OC[C@@H](O)[C@H](O)[C@H]8O)[C@H]7O[C@@H]7O[C@H](CO)[C@@H](O)[C@H](O[C@@H]8O[C@H](CO)[C@@H](O)[C@H](O)[C@H]8O)[C@H]7O)[C@H](O)[C@H]6O)[C@H](O)C[C@]5(C)[C@H]4CC[C@]3(C)[C@H]1[C@@H]2C"
assigned_class = "True"


Problem: GET /call?item= Oc1c(Br)c(Br)c(Br)c(Br)c1Br returns the recorded outcome of this test.
Solution: False

Problem: GET /call?item= C=CC(=O)OCC(CO)(COC(=O)C=C)COC(=O)C=C returns the recorded outcome of this test.
Solution: True

Problem: GET /call?item= N#CC(Cl)Cl returns the recorded outcome of this test.
Solution: False

Problem: GET /call?item= C(=NC1CCCCC1)=NC1CCCCC1 returns the recorded outcome of this test.
Solution: False

Problem: GET /call?item= ClC1=C(Cl)C2(Cl)C3C(Cl)C(Cl)CC3C1(Cl)C2(Cl)Cl (configuration not stated) returns the recorded outcome of this test.
Solution: False

Problem: GET /call?item= N#CSCSC#N returns the recorded outcome of this test.
Solution: True

Problem: GET /call?item= O=C(O)C1C(C(=O)O)C2(Cl)C(Cl)=C(Cl)C1(Cl)C2(Cl)Cl (configuration not stated) returns the recorded outcome of this test.
Solution: False

Problem: GET /call?item= Nc1ccccc1C(=O)OCCc1ccccc1 returns the recorded outcome of this test.
Solution: False
